- PROCEDURE_DETAILS: NCI Yeast Anticancer Drug Screen. Data for the bub3 strain (AID 167)
- MEASUREMENT_CONTEXT: S. cerevisiae bub3 mutant strain, at 50.0 µM, active compounds read high
This is part of a sample that, as a whole, favours compounds with a hit. Of some 79,000 tested, about 15% had one in any assay.
TEST_READOUT: growth inhibition (%)
Expressed in %, but write only the number.

// worked examples, growth inhibition included
CCCNS(C)(=O)=O : 11.1
CCCCC1CCCCC1=O (stereo not drawn) : -0.45
CCOP(=O)(OCC)C(C)(CC)NC1=NC(C(F)(F)F)(C(F)(F)F)NC(=O)N1 (stereo not drawn) : -0.5
Cc1[nH]c(=S)[nH]c(=O)c1CCC(C)C : 37.8
Clc1cc(/C=C/c2ccccc2)c2ccccc2n1 : -4.65

In plain terms, C[N+](C)(C)CC(=O)N/N=C(\C(=O)Nc1ccc(Cl)cc1)C1C(=O)N(c2ccccc2)N=C1N (stereo not drawn) has a documented growth inhibition of -6.95

For reference, reported growth inhibition for Cc1nc(C(Cl)(Cl)Cl)nc(C(Cl)(Cl)Cl)n1 stands at 18.4

Reported growth inhibition ( Oc1ccc(C(c2ccc(O)cc2)c2ccc(O)cc2)cc1 ) = 22.1

The compound listed as CC(C)(C)OC(=O)NN(CC(=O)OCc1ccccc1)N=O has a reported growth inhibition of 10.2

###

As shown below, each of these molecules has a reported growth inhibition value.
- PROCEDURE_DETAILS: NCI Yeast Anticancer Drug Screen. Data for the mec2-1 strain (AID 157)
- MEASUREMENT_CONTEXT: S. cerevisiae mec2-1 strain, at 50.0 µM, active compounds read high
This is part of a sample that, as a whole, favours compounds with a hit. Of some 79,000 tested, about 15% had one in any assay.
Write the answer as a number in %, unit excluded.

Example results:
COC(=O)c1cc(=O)n(C)[nH]1 : 4.7
[O-][N+](CCO)(CCO)Cc1ccccc1 : 1.05
C=C1CN(CCc2ccccc2)C(=S)S1 : 19.1
CC(C)(CC1(C)NC(=O)NC1=O)OCc1ccccc1 (stereo unspecified) : -30.1
Cc1cccc(-c2cc(=O)c3cccnc3[nH]2)c1 : -1.45
NC(C(=O)O)C(F)(F)C(=O)O (stereo unspecified) : -18.7

Please find the next molecule below.
Entry under test: COC(=O)C1CC(=O)c2cc(OC)ccc2C1 (stereo unspecified) . Its growth inhibition was 2.8

###

- PROCEDURE_DETAILS: NCI Yeast Anticancer Drug Screen. Data for the bub3 strain (AID 167)
- MEASUREMENT_CONTEXT: S. cerevisiae bub3 mutant strain, at 50.0 µM
Compounds without any hit were thinned out: in the full panel of roughly 79,000, 15% have a hit. The source made the active and inactive calls. Cut-off read from the data, not from the text of the source: active = growth inhibition above about 70%; inactive = the rest.
One label from this list, please: t (active), f (inactive)

Check out these entries, answers already filled in.
CCCCCCCCCCCCCCCCCC(=O)N1C(=O)c2ccccc2C1=O : f
COc1ccccc1NC(=O)Oc1ccc(C#N)cc1 : f
CCCCCCCCC/C=C1\CCC(CN2CCOCC2)C1=O (centres undefined) : t
COc1cccc(NC(=S)NCc2cccnc2)c1 : f

(Q) // outcome(item) with item = Oc1ccc2ccccc2c1-c1c(OC(c2ccccc2)c2ccccc2)ccc2ccccc12
(A) f

(Q) Hi, do you know how CCOC(=O)N1C=NC23C(c4ccccc4)C(c4ccccc4)C12C(=O)N(C)C(=O)N3C (centres undefined) came out in this test?
(A) f

(Q) Look up the recorded call for O=S(=O)(SC1=NCCN1)c1cccc2ccccc12 in this test.
(A) f

(Q) Outcome? O=C(Cc1ccccc1CC(=O)Oc1ccccc1)Oc1ccccc1
(A) f

(Q) Field: outcome | Entry: O=C1c2ccccc2C(O)(c2ccccc2)c2ccccc21
(A) f
